Values from patent US20230250160A1

- study.system: T1, Human Serum Albumin (human, UniProt P02768 25-609)
- T1 construct: also called HSA
- T1 sequence (P02768 25-609 limits assumed): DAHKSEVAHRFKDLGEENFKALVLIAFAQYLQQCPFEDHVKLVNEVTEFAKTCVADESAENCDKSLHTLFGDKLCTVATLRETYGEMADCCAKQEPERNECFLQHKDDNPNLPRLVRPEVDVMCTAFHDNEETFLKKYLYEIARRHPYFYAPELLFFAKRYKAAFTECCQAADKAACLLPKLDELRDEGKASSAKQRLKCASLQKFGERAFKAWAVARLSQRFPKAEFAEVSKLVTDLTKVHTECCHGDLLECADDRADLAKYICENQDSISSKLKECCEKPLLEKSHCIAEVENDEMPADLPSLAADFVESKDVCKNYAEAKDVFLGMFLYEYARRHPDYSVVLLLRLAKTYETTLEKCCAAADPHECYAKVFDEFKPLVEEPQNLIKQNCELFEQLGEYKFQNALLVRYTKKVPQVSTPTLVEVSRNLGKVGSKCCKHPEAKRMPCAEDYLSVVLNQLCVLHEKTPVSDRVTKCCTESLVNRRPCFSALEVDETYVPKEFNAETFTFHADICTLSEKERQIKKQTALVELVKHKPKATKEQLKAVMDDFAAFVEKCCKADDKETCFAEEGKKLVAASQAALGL
- experiment.notes: SPR Biacore T200, HSA on CM5 chip, ADAPT injected, 1:1 fit
measured.attribute: Kd (nM)

LAVAKAYAKYELAFYGVSDFYNELILKAKTVEGVEALKLHILAALP (designed binder, also called INS_03) [ADAPT variant Insulin_03] = 3.1
LAIAKAYAQYELSFYGVSDFYRELIVKAKTVEGVEALKLHILAALP (designed binder, also called INS_02) [ADAPT variant Insulin_02] = 1.5

P: LIWAKASAVRELHRYGVSDFYYELIVKAKTVEGVEALKLHILAALP (designed binder) [ADAPT variant TNFα_09]
Q: LWAAKDDADWELWQYGVSDFYRALIWKAKTVEGVEALKLHILAALP (designed binder, also called ANG_6) [ADAPT variant ANG_06]
Given P and Q , report the one with the higher recorded Kd. // output: label of the selected item P

1: LIWAKAEAVQELFMYGVSDFYYDLIIKAKTVEGVEALKLHILAALP (designed binder, Single domain of about 6 kDa, made in E. coli, purified on HSA resin) [ADAPT variant TNFα_05]
2: LWWAKVSAIKELQAYGVSDFYYMLITKAKTVEGVEALKLHILAALP (designed binder) [ADAPT variant MYDGF_08]
Param pair: 1 , 2 . Output: the one whose Kd is numerically greater. Choose, then provide that item's label. 1
